Target: T1, human BR3 extracellular domain (human, UniProt Q96RJ3 1-61)
T1 construct: biotinylated where used as tracer; also called hBR3-ECD; BR3-ECD
Assay: SPR, BR3 ECD on chip;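 further: Anti-BR3 antibodies passed over the chip at high flow in PBS with 0.05% polysorbate 20, on and off rates fitted together globally to a 1:1 binding model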
REPORTED_PROPERTY: koff (s⁻¹)
One number for each entry, in s⁻¹.

Here's what some known entries look like.
BINDER: chimeric 2.1 IgG (antibody, V domains shown, also called Ch 2.1 IgG; ch 2.1) VH: EVQLQESGPSLVKPSQTLSLTCSVTGDSITRGYWNWIRKFPGNKLEFMGYINYSGTTYYNPSLKSRISITRDTSKNQYYLQLNSVTTEDTATYYCATPHTYGAMDYWGQGTTLTVSA VL: DIVLTQSPVSLAVSLGQRATISCRASESVDDYGISFMHWYQQKPGQPPKLLIYRASDLESGIPARFSGSGSGTDFTLTINPVETDDVAIYYCQQTSKDPWTFGGGT
koff / s⁻¹: 6.8e-05

BINDER: Hu11G9-36 IgG (antibody, V domains shown, humanized IgG) VH: EVQLVESGGGLVQPGGSLRLSCAASGDSINFGYWNWVRQAPGKGLEWVGYISYSGSTYYNPSLKSRFTISRDTSKNTFYLQMNSLRAEDTAVYYCAALNDLFLYFDVWGQGTLVTVSS VL: DIQMTQSPSSLSASVGDRVTITCRSSQSLVHSNGNTYLHWYQQKPGKAPKLLIYKVSNRFSGVPSRFSGSGSGTDFTLTISSLQPEDFATYYCSQSTHVPPFTFGQGTKVEIKR
koff / s⁻¹: 4.1e-05

Entry Hu2.1-40 Fab (Fab, V domains shown, Fab) VH: EVQLVESGGGLVQPGGSLRLSCAASGDSITRGYWNWVRQAPGKGLEWVGYINYSGTTYYNPSLKSRFTISRDTSKNTFYLQMNSLRAEDTAVYYCATTLPYGAMDYWGQGTLVTVSS VL: DIQMTQSPSSLSASVGDRVTITCRASESVDDYGISFMHWYQQKPGKAPKLLIYRASDLESGVPSRFSGSGSGTDFTLTISSLQPEDFATYYCQQTSKDPWTFGQGTKVEIKR : reported koff = ?
0.000923
